Just for reference, paper PMC10397247 is where these values come from.

Molecular target: T1, 4H3172-bN
T1 chain: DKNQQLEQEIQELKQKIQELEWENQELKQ
Experiment: two-hybrid library CCNG1;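 also: natural log of median RNA to DNA barcode read ratio; higher means stronger binding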
observed_property: interaction score
Numbers only.

Below is a list of binders. For each, state its recorded interaction score.
1. DENQQLKQKNQELKQEIQELEWEIQELEQ [4H1985-bN]
2. DKNQQLEQEIQELKQKIQELEWENQELKQ [4H3172-bN]

RESULT:
-0.909
-0.109

Quick request: interaction score for each listed item, please.
1. DENQQLEQKIQELKQKNQELEWEIQELEQ [4H1393-bN]
2. DKNQQLEQEIQELEQKIQELEWKNQELKQ [4H3112-bN]

RESULT:
1: -1.92; 2: 0.00481
